Origin of measurements: PubChem BioAssay

- assay_procedure: viability profiling in RPMI8226 myeloma cells – cell-based, resazurin fluorescence, basal, 24 h, PK04 Diversity Set, profiling panel (AID 1180);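 also: RPMI8826 multiple myeloma cell line at 5000 cells per well; test concentration not given here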
- run_conditions: higher = more signal
Label rule, in plain words: z-score of -0.7 and up is Criterion met, under -0.7 is Criterion not met.

Here are 5 compounds together with their reported answers.
CC(C)C(CO)N1C(=O)[C@@H]2C3C(=O)OCCC/C=C\[C@H]3OC23C=CCN(Cc2ccccc2)C(=O)[C@@H]13 (stereo partly drawn) = Criterion met
CCCNC(=O)[C@@]1(Sc2ccc(C)cc2)CC(=O)N(Cc2ccccc2Cl)[C@@H]1c1ccc(CO)cc1I = Criterion not met
CC(C)=CCCC=C(C)C(O)C1C=CC2C(=O)N(c3ccccc3)C(=O)C2N1Nc1ccc(C#N)cc1 (stereo not drawn) = Criterion not met
CN(C)CCCC[C@@H]1NC(=O)[C@@H]2C[C@H](C(=O)NCCCCCN)[C@H](c3cccc(OCCO)c3)N2C1=O = Criterion met
CN(C)CCCNC(=O)[C@@H]1c2ccccc2C(=O)N(Cc2ccccc2C(F)(F)F)[C@H]1c1ccc(CO)cc1 = Criterion met

query: Identify whether the reported z-score of the following compound is -0.7 or greater: COC(=O)[C@@]1(Cc2ccccc2)[C@H]2c3cc(C(=O)N(C)C)n(CCSC(=N)N)c3C[C@H]2CN1C(=O)c1ccccc1
result: Criterion met

query: Identify whether the reported z-score of the following compound is -0.7 or greater: O=C(NCC(O)CO)C1N=C(c2ccc(OCCCO)cc2)N(c2ccccc2)O1 (stereo not drawn)
result: Criterion not met

query: Identify whether the reported z-score of the following compound is -0.7 or greater: COC(=O)[C@@]1(Cc2ccccc2)[C@H]2c3cc(C(=O)N(C)C)n(Cc4ccc(S(C)(=O)=O)cc4)c3C[C@H]2CN1C(=O)c1ccccc1
result: Criterion met

----------
- measured_on: Torsin-1A-interacting protein 2 (Homo sapiens) (UniProt Q8NFQ8)
- Sequence (Q8NFQ8 whole entry, looked up): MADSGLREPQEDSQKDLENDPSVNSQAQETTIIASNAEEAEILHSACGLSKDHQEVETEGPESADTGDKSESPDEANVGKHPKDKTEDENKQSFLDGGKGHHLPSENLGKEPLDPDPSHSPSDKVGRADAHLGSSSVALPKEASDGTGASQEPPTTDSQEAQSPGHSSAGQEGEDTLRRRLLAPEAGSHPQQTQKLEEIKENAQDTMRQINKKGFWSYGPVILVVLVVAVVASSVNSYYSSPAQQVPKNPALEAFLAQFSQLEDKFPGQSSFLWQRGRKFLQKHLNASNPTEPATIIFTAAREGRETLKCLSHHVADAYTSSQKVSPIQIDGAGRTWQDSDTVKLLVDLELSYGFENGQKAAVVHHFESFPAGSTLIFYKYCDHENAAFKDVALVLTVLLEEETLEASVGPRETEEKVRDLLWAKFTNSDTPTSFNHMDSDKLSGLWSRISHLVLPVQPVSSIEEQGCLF
- assay_procedure: small molecules binding lysate-expressed LULL1 – cell lysate, human LULL1 lysate, 635/667 nm fluorescence, primary screen (AID 1092);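 also: probe is lysate of COS7 cells overexpressing human LULL1; score merges per-feature 667 nm fluorescence with signal-to-noise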
- run_conditions: small-molecule microarray, hLULL1 lysate binding, 635 nm fluorescence; higher = more signal
Label rule, in plain words: composite z-score of 3 and up is criterion met, under 3 is criterion not met.

COC(=O)[C@@]1(Cc2ccccc2)[C@H]2c3cc(C(=O)N(C)C)n(CCO)c3C[C@H]2CN1C(=O)c1ccccc1 = criterion met
C=CCNC(=O)[C@H]1[C@@H]2C(=O)O[C@@H](c3ccccc3)[C@@H](c3ccccc3)N2[C@@H](c2ccc(OCCO)cc2)[C@]12C(=O)Nc1ccc(C#CC3(O)CCCCCC3)cc12 = criterion not met
[N-]=[N+]=NCc1ccccc1[C@@H]1OC(c2ccc(OCCCO)cc2)=N[C@]1(Cc1ccccc1N=[N+]=[N-])C(=O)NCC(O)CO (some centres not stated) = criterion met
CO[C@H]1O[C@H](CO)[C@@H](OC(=O)Nc2ccccc2)[C@H](OC(=O)Nc2ccccc2)[C@H]1OC(=O)Nc1ccccc1 = criterion met
CCOC(=O)C1=CC[C@@H](c2ccc(OC)cc2)N(S(=O)(=O)c2ccc(C)cc2)[C@H]1c1ccc(C)cc1 = criterion not met

Turning now to a further record.
query: Identify whether the reported composite z-score of the following molecule is 3 or greater: COC(=O)[C@@]1(Cc2ccccc2)[C@H]2c3cc(C(=O)N(C)C)n(Cc4ccc(C(F)(F)F)nc4)c3C[C@H]2CN1C(=O)c1ccccc1
result: criterion met

----------
- measured_on: Dickkopf-related protein 1 (Homo sapiens) (UniProt O94907)
- Sequence (O94907 whole entry, looked up): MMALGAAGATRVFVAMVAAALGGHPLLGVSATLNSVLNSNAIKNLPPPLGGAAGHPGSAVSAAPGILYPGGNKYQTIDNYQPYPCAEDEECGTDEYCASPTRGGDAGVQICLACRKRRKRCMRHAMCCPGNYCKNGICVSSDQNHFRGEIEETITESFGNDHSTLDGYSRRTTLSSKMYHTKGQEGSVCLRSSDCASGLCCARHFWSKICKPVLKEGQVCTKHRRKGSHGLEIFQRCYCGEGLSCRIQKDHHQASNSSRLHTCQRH
- assay_procedure: small molecules binding DKK1 protein – biochemical, small-molecule microarray, 635 nm fluorescence scan, primary screen (AID 1106);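 also: score merges emission near 667 nm with signal to noise over three replicate slides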
- run_conditions: higher = more signal
parameter_measured: composite z-score

COc1ccc(NN2C(C(O)c3ccc(I)cc3)C=CC3C(=O)N(C4CCCCC4)C(=O)C32)cc1 (configuration not stated) = 0.0284
O=C(NCC(O)CO)C1N=C(c2ccc(OCCCO)cc2)N(c2ccccc2)O1 (configuration not stated) = 0.433
O=C1O[C@@H](c2ccccc2)[C@@H](c2ccccc2)N2[C@@H](c3ccc(OCCO)cc3)[C@]3(C(=O)Nc4ccc(C#CC5(O)CCCCCC5)cc43)[C@@H](C(=O)O)[C@H]12 = -0.0236
CN(C)CCCCNC(=O)[C@H]1C[C@H]2C(=O)N3CCC[C@H]3C(=O)N2[C@H]1c1cccc(OCCO)c1 = -0.0023
C=C(COC)C(=O)CC[C@@H](OC(=O)c1ccccc1-c1ccccc1C(=O)O)c1ccc(OCCO)cc1 = 0.0668
COCCOC(=O)N1C(=O)[C@@]2(c3cc(C#CCC(C(=O)OC)C(=O)OC)ccc31)[C@H](C(=O)Nc1nc3ccccc3s1)[C@H]1C(=O)O[C@H](c3ccccc3)[C@H](c3ccccc3)N1[C@@H]2c1ccc(O)cc1 = 1.06

Pending compound:
So, CCOC(=O)c1cn(C[C@H](Cc2ccccc2)NC(=O)N[C@H](CO)CCc2oc(C(C)=O)c(C(=O)OC)c2C(=O)OC)nn1 ? Its composite z-score was 1.1

----------
- assay_procedure: compounds binding Alexa647 anti-His antibody – biochemical, small-molecule microarray, 635 nm fluorescence, artefact control for SMM control protein annotation, primary screen (AID 1128);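 also: score merges feature fluorescence with signal-to-noise for each printed compound spot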
- run_conditions: higher = more signal
Label rule, in plain words: composite z-score of 1 and up is True, under 1 is False.

query: Identify whether the reported composite z-score of the following molecule is 1 or greater: C=CCOC(=O)[C@@H]1[C@H]2C(=O)O[C@H](c3ccccc3)[C@H](c3ccccc3)N2[C@H](c2ccc(OCCOC(=O)[C@H]3C[C@H]4C(=O)NCC(=O)N4[C@H]3c3cccc(OCCO)c3)cc2)[C@@]12C(=O)Nc1ccc(I)cc12
result: True

query: Identify whether the reported composite z-score of the following molecule is 1 or greater: Cc1ccc(S[C@]2(C(=O)NC3CC3)CC(=O)N(C(C)C)[C@@H]2c2ccc(CO)cc2I)cc1
result: True

----------
- Test system: glycogen synthase kinase-3 (GSK3A per assay name; protocol says GSK3B)
- assay_procedure: compounds binding glycogen synthase kinase-3 – biochemical, small-molecule microarray, 635 nm fluorescence, GSK3A, primary screen (AID 1103); also: the record names both GSK3A and GSK3B
- run_conditions: fluorescence 635 nm, higher = more signal
Items are presented alongside their recorded composite z-score.
Lab note: jot down the number only; don't add units.

Sample records with composite z-score:
COc1ccc([Si](C)(C)[C@H]2[C@H](CCO)O[C@@]3(C(=O)N(Cc4cccc(N5C(=O)c6ccccc6Oc6ccccc65)c4)c4ccccc43)[C@@H]2C)cc1 = -0.479
CC(C)OC(=O)CC(=O)CC(O)c1cccc([N+](=O)[O-])c1 (stereo not drawn) = 0.814
COC(=O)[C@@]1(Cc2ccc(F)cc2)[C@H]2c3cc(C(=O)N4CCCC4)n(Cc4cc(F)cc5c4OCOC5)c3C[C@H]2CN1C(=O)c1ccccc1 = -0.0785
[N-]=[N+]=Nc1ccccc1[C@@H]1OC(c2ccc(OCCCO)cc2)=N[C@]1(Cc1ccccc1)C(=O)NCCN1CCOCC1 = 0.774
CC[C@@H]1C=C(C(=O)O)[C@H](c2ccc(OC)cc2)N1S(=O)(=O)c1ccc(C)cc1 = -1.06
Cc1ccc(S[C@]2(C(=O)NCc3ccccc3)CC(=O)N(Cc3ccccc3C(F)(F)F)[C@@H]2c2ccc(CO)cc2)cc1 = -1.13
C=C(COC)C(=O)CC[C@@H](OC(=O)c1ccccc1-c1ccccc1C(=O)O)c1ccc(OCCO)cc1 = -0.278

Pending compound:
So, C=C1C(=O)C=C2CN(C(=O)c3ccccc3)[C@@](Cc3ccc(OC)cc3)(C(=O)OC)[C@@H]12 ? Its composite z-score was 0.681

----------
- measured_on: NADPH oxidase 4 (Homo sapiens)
- assay_procedure: compounds shifting NOX4 Amplex Red fluorescence – cell-based, HEK293-NOX4, tetracycline-induced, NOX inhibitor project, primary screen (AID 1160)
- run_conditions: HEK293-NOX4, Amplex Red H2O2 fluorescence, 45 min; higher = more signal, called active from +8 up or from −8 down
Active and inactive are the calls of the source.
Items are presented alongside their recorded z-score.

Sample records with z-score:
COCCCNC(=O)[C@@H]1c2ccccc2C(=O)N(Cc2ccc(OC(F)(F)F)cc2)[C@H]1c1ccc(CO)cc1 = 0.915 (inactive)
CCOC(=O)C[C@H]1[C@H](OC(=O)c2cc3ccccc3oc2=O)[C@@H](NC(=O)CC(C)C)c2cc(OCCCO)ccc2N1C(=O)Cc1ccc(OC)cc1 = 0.381 (inactive)
CC(C)(C)N1CC=CC23O[C@@H]4C=CCOC(=O)[C@@H]4[C@H]2C(=O)N(CCO)[C@@H]3C1=O (some centres not stated) = 1.32 (inactive)

So, O=C(NCC(O)CO)C1N=C(c2ccc(OCCCO)cc2)N(c2ccccc2)O1 (configuration not stated) ? Its z-score was -1.05 (inactive)

So, CN(C)CCCNC(=O)[C@@H]1c2ccccc2C(=O)N(Cc2ccccc2C(F)(F)F)[C@H]1c1ccc(CO)cc1 ? Its z-score was 1.03 (inactive)

So, C=CCOC(=O)[C@@H]1[C@H]2C(=O)O[C@H](c3ccccc3)[C@H](c3ccccc3)N2[C@H](c2ccc(OCCOC(=O)[C@H]3C[C@H]4C(=O)NCC(=O)N4[C@H]3c3cccc(OCCO)c3)cc2)[C@@]12C(=O)Nc1ccc(I)cc12 ? Its z-score was 0.436 (inactive)

So, COC(=O)[C@@]1(Cc2ccc(OC)cc2)[C@H]2c3cc(C(=O)N4CCCC4)n(Cc4ccc(Cl)c(C(F)(F)F)c4)c3C[C@H]2CN1C(=O)c1ccccc1 ? Its z-score was 1.28 (inactive)

So, C=CCOC(=O)[C@H]1[C@@H]2C(=O)O[C@@H](c3ccccc3)[C@@H](c3ccccc3)N2[C@@H](c2ccc(OCCOC(=O)[C@@H]3C[C@@H]4C(=O)N[C@@H](CCCCNC(C)=O)C(=O)N4[C@@H]3c3cccc(OCCO)c3)cc2)[C@]12C(=O)Nc1ccccc12 ? Its z-score was 1.4 (inactive)
